Tested on: U251 CNS
experiment.notes: NCI-60 one-dose screen, 48 h (100 = growth as untreated, 0 = no growth, -100 = all killed)
test.parameters: 10 µM
About 83,000 compounds went through this panel and 20% of them were active in at least one assay; those are over-represented in the sample as a whole.
Decision: growth beneath 90% gives t; growth meeting or exceeding 90% gives f.

Please review the entries below; each comes with its answer.
| molecule | target.under.test | group |
| --- | --- | --- |
| O=C1Cc2cc(CCN3CCN(c4nsc5ccccc45)CC3)c(Cl)cc2N1 | U251 CNS | f |
| COc1cc2c3c(n([C@H]4CCOC4)c(=O)c2cc1OC)-c1cc2c(cc1C3=O)OCO2 | U251 CNS | t |

Prompt line: Could you please tell me whether growth recorded for COc1ccc2c(c1)OC(N)=C(C#N)C2c1cc(OC)c(OC)c(OC)c1 (stereo unspecified) is less than 90%?
Response line: t

---

System: RPMI-8226 leukemia
experiment.notes: NCI-60 one-dose screen, 48 h
test.parameters: 10 µM
This is part of a sample that, as a whole, favours compounds with a hit. Of some 83,000 tested, about 20% had one in any assay. Active and inactive are the calls of the source. The calls were made as follows: active = growth percent below 10; inactive = the rest.
API: response.call in active, inactive

Prompt line: Query: recorded result category for "O=C(O)c1cc([N+](=O)[O-])ccc1Oc1ccccc1" in this test
Response line: inactive

Prompt line: Outcome? "COc1cc(NC(=O)C2=C(N3CCOCC3)/C(=C/c3ccc(Cl)cc3)CC2)cc(OC)c1OC"
Response line: inactive

Prompt line: Which outcome did this test record for the molecule CO[C@H]1CC(O[C@@H]2/C(C)=C/C[C@@H]3C[C@@H](C[C@]4(C=C[C@H](C)[C@@H](C5CCCCC5)O4)O3)OC(=O)[C@@H]3C=C(C)[C@@H](O)[C@H]4OC/C(=C\C=C\[C@@H]2C)[C@]43O)O[C@@H](C)C1O[C@H]1C[C@H](OC)[C@@H](O)[C@H](C)O1 (stereo partly drawn) ?
Response line: active

Prompt line: Called result for "CC(C)N(CCOc1ccc(-c2nc3sccn3c2-c2ccnc(S(C)(=O)=O)n2)cc1)C(C)C"
Response line: inactive

Prompt line: What did the test return for "O=C(/C=C/c1cccc(B(O)O)c1)c1cccc(B(O)O)c1" ?
Response line: inactive

---

Test system: KM12 colon
experiment.notes: NCI-60 one-dose screen, 48 h
test.parameters: 10 µM
This is part of a sample that, as a whole, favours compounds with a hit. Of some 83,000 tested, about 20% had one in any assay. Active and inactive are the calls of the source. How the source made its calls: active means growth percent below 10; inactive means the rest.
Respond only with the outcome that fits, drawn from yes (1) for active, no (0) for inactive

Solved entries:
| smi | target.under.test | group |
| --- | --- | --- |
| COc1cc(/C=C/c2cc(/C=C/c3ccc(O)c(OC)c3)[nH]c(=O)n2)ccc1O | KM12 colon | no (0) |
| COc1cc(/C=C/c2cc(/C=C/c3ccc(O)c(OC)c3)nc(N)n2)ccc1O | KM12 colon | yes (1) |
| CCOC(=O)c1cc(C(=O)c2cc(OC)c(OC)c(OC)c2)n2c1ccc1c3cccnc3ccc12 | KM12 colon | no (0) |
| O=c1cn[nH]c2ccc(Br)cc12 | KM12 colon | no (0) |

Prompt line: In this assay, the call recorded for "NS(=O)(=O)c1ccc(Br)cc1" was what?
Response line: no (0)
